TARGET_DESC: HDAC
PROTOCOL_NOTES: HDAC fluorimetric enzyme assay (HeLa nuclear extract)
EXPERIMENTAL_ENDPOINT: IC50

[Q] IC50 for C#Cc1cccc(Nc2ncnc3ccc(OCC(=O)NO)cc23)c1 ?
[A] > 10000 nM

[Q] IC50 for COc1cc2ncnc(Nc3ccc(F)c(Cl)c3)c2cc1NC(=O)CCCC(=O)NO ?
[A] 1000 to 10000 nM

[Q] IC50 for COc1cc2ncnc(Nc3ccc(F)c(Cl)c3)c2cc1OCCCCCCC(=O)N(C)O ?
[A] > 10000 nM

[Q] IC50 for C#Cc1cccc(Nc2ncnc3cc(OC)c(NC(=O)CCCC(=O)NO)cc23)c1 ?
[A] 100 to 1000 nM

[Q] IC50 for COc1cc2ncnc(NCc3cccc(Br)c3)c2cc1OCCCCCCC(=O)NO ?
[A] < 100 nM

---

Quick reference: IC50 of the listed items.
TARGET_DESC: HDAC
PROTOCOL_NOTES: HDAC fluorimetric enzyme assay (HeLa nuclear extract)

# SMILES_RECORD, IC50
rows = [
    ("C#Cc1cccc(Nc2ncnc3ccc(OCCCCCC(=O)NO)cc23)c1", "< 0.1 µM"),
    ("C#Cc1cccc(Nc2ncnc3cc(OC)c(NC(=O)CCCCC(=O)NO)cc23)c1", "0.1 to 1 µM"),
    ("O=C(CCCOc1ccc2ncnc(Nc3ccc(F)c(Cl)c3)c2c1)NO", "< 0.1 µM"),
    ("COc1cc2ncnc(N[C@H](C)c3ccc(F)cc3)c2cc1OCCCCCCC(=O)NO", "0.1 to 1 µM"),
    ("COCCOc1cc2ncnc(Nc3ccc(F)c(Cl)c3)c2cc1OCCCCCCC(=O)NO", "< 0.1 µM"),
]

[Q] IC50 for COc1cc2ncnc(Nc3ccc(F)c(Cl)c3)c2cc1NC(=O)Nc1ccc(C(=O)NO)cc1 ?
[A] 1 to 10 µM

[Q] IC50 for COc1cc2ncnc(Nc3ccc(F)c(Cl)c3)c2cc1OCCOc1ccc(CC(=O)NO)cc1 ?
[A] 1 to 10 µM

[Q] IC50 for C#Cc1cccc(Nc2ncnc3cc(OC)c(NC(=O)CCCCCCC(=O)NO)cc23)c1 ?
[A] < 0.1 µM

[Q] IC50 for COc1cc2ncnc(N[C@H](C)c3ccc(Cl)cc3)c2cc1OCCCCCCC(=O)NO ?
[A] 0.1 to 1 µM
